Tested on: KB (human mouth epidermal carcinoma) cell line
assay_summary: MTT cytotoxicity assay, KB cells
stated_conditions: ratio IC50 in Hek-293 to IC50 in KB
// reported Selective index, KB for each item listed
Answer using only a numeral; do not append any unit.

Solved entries:
compound	tested_on	Selective index, KB
O=C1OCC2=C1C(c1cc3ccccc3s1)C1=C(N2)C(=O)c2ccccc2C1=O (centres unmarked) [Compound 13g]	KB (human mouth epidermal carcinoma) cell line	1.31
O=C1OCC2=C1C(c1coc3ccccc13)C1=C(N2)C(=O)c2ccccc2C1=O (centres unmarked) [Compound 13f]	KB (human mouth epidermal carcinoma) cell line	17.98
O=C1OCC2=C1C(c1ccoc1)C1=C(N2)C(=O)c2ccccc2C1=O (centres unmarked) [Compound 13b]	KB (human mouth epidermal carcinoma) cell line	1.37

For O=C1OCC2=C1C(c1ccn[nH]1)C1=C(N2)C(=O)c2ccccc2C1=O (centres unmarked) [Compound 13j] , what is its reported Selective index, KB?
0.63

Can you handle O=C1OCC2=C1C(c1ccc(Br)o1)C1=C(N2)C(=O)c2ccccc2C1=O (centres unmarked) [Compound 13d] next?
13.19

Can you handle O=C1OCC2=C1C(c1ccco1)C1=C(N2)C(=O)c2ccccc2C1=O (centres unmarked) [Compound 13c] next?
1.02

Can you handle COc1cc(C2C3=C(COC3=O)NC3=C2C(=O)c2ccccc2C3=O)ccn1 (centres unmarked) [Compound 13k] next?
9.30

Can you handle O=C1OCC2=C1C(c1cnc(Cl)s1)C1=C(N2)C(=O)c2ccccc2C1=O (centres unmarked) [Compound 13h] next?
1.23

Can you handle COc1ncc(C(F)(F)F)cc1C1C2=C(COC2=O)NC2=C1C(=O)c1ccccc1C2=O (centres unmarked) [Compound 13m] next?
3.61

Can you handle O=C1OCC2=C1C(c1ccsc1)C1=C(N2)C(=O)c2ccccc2C1=O (centres unmarked) [Compound 13a] next?
16.00
